Parameter: average number of surviving parasites. Scope: all listed entries.
# Tested on: Rhipicephalus sanguineus
# protocol_details: Parasite extermination test of dog in vivo, R. sanguineus
# condition_summary: topical spot-on 20 mg/kg, 30th day
A bare number is all that is needed in reply.

molecule	target_of_assay	average number of surviving parasites
C=C1SC(=N\c2ccc(C)cc2)/C(=C/Sc2ccccc2)CC12CCCCC2	Rhipicephalus sanguineus	6.5
C=C1SC(=N\c2ccc(C)cc2)/C(=C/Sc2ccccc2)C(C)C1(C)C (stereo not drawn)	Rhipicephalus sanguineus	1.8
C=C1SC(=N\c2ccc(C)cc2)/C(=C/Sc2ccccc2)CC1(C)C	Rhipicephalus sanguineus	6.0
C=C1SC(=N\c2ccc(C)cc2)/C(=C/Sc2cccs2)CC1(C)C	Rhipicephalus sanguineus	4.3

Q. I have this molecule here, C=C1SC(=N\c2ccc(C)cc2)/C(=C/Sc2cccs2)C(C)C1(C)C (stereo not drawn) , and I need its recorded average number of surviving parasites.
A. 0

Q. I have this molecule here, CC(C)=C1CC(C)C(=C\SCc2ccc(Cl)cc2)/C(=N/c2ccc(C)cc2)S1 (stereo not drawn) , and I need its recorded average number of surviving parasites.
A. 0
